biological target: UniProt Q9H8M2; assay: Degradation of BRD9 (IF), immunofluorescence in MV4-11 cells, 24 hours (Assay Protocol 2); format: cell-based; design: A suspension of MV4-11 cells (ATCC CRL-9591) was prepared; host or cells: MV4-11; conditions: MV4-11, Assay protocol 2; BRD9 degradation; read-out: Dmax
Sequence (Q9H8M2 whole entry): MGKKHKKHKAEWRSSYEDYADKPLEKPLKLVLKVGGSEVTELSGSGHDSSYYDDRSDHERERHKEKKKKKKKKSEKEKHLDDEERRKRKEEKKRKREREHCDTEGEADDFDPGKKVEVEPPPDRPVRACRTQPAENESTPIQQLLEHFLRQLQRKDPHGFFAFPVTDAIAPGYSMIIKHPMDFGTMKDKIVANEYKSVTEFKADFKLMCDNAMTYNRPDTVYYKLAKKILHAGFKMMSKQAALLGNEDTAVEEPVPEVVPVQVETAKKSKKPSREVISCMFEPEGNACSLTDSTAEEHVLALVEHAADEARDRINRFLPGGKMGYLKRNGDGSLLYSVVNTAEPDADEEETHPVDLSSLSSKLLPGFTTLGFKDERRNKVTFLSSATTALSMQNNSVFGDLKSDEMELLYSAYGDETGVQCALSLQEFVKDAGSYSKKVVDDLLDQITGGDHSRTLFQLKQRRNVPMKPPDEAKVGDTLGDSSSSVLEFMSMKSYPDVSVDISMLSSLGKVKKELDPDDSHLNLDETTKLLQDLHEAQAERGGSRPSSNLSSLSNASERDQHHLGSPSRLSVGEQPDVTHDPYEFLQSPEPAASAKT
RESULT TYPE: Dmax

Past entries and their recorded results:
COc1cc(-c2cn(C)c(=O)c(C)c2C)cc(OC)c1CN(C)Cc1ccc2c(c1)CCN(C(=O)/C(C#N)=C/c1nc3ccccc3s1)C2C (mixture of isomers)    40 to 70%
COc1cc(-c2cn(C)c(=O)c(C)c2C)cc(OC)c1CN1C[C@H](C)N(Cc2cccc3c2CCN(C(=O)/C(C#N)=C/c2cccc(Br)n2)C3C)[C@@H](C)C1 (mixture of isomers)    40 to 70%
COc1cc(-c2cn(C)c(=O)c(C)c2C)cc(OC)c1C(=O)N1CCC(Oc2cccc3c2CCN(C(=O)/C(C#N)=C/c2cccc(Br)n2)C3C)CC1 (mixture of isomers)    40 to 70%

## Task Can you share its Dmax? I mean this molecule: COc1cc(-c2cn(C)c(=O)c(C)c2C)ccc1O[C@H]1CC[C@@H](Nc2cccc3c2CCN(C(=O)/C(C#N)=C/C(C)(C)C)C3C)CC1 (some centres unmarked)
## Result > 75%

## Task Requested field: Dmax. Item: CC[C@@H]1CN(Cc2c(OC)cc(-c3cn(C)c(=O)c(C)c3C)cc2OC)CCN1Cc1cccc2c1CCN(C(=O)/C(C#N)=C/C(C)(C)C)C2C (mixture of isomers)
## Result 70 to 75%

## Task Can you look up the measured Dmax of COc1cc(-c2cn(C)c(=O)c(C)c2C)cc(OC)c1CN1CCN(Cc2cccc3c2CCN(C(=O)/C(C#N)=C/C24CC(C2)C4)C3C)CC1 (mixture of isomers) for me?
## Result > 75%

## Task Tell me the measured Dmax of COc1cc(-c2cn(C)c(=O)c(C)c2C)ccc1OC1CCC(Cc2cccc3c2CCN(C(=O)/C(C#N)=C/C(C)(C)N2CCN(C4COC4)CC2)C3C)CC1 (centres unmarked) , please.
## Result 40 to 70%

## Task Given COc1ccc(/C=C(\C#N)C(=O)N2CCc3c(CN4CCN(Cc5c(OC)cc(-c6cn(C)c(=O)c(C)c6C)cc5OC)CC4)cccc3C2C)cn1 (mixture of isomers) , state its recorded Dmax.
## Result 40 to 70%

## Task Look at this molecule and give its reported Dmax. COc1cc(-c2cn(C)c(=O)c(C)c2C)cc(OC)c1CN1CCN(Cc2cccc3c2CCN(C(=O)/C(C#N)=C\C(C)(C)CF)C3C(C)C)[C@@H](C)C1 (single isomer, unassigned)
## Result > 75%

## Task For the molecule COc1cc(-c2cn(C)c(=O)c(C)c2C)cc(OC)c1CN1CCN(Cc2cccc3c2CCN(C(=O)/C(C#N)=C/c2nc(C(F)(F)F)cs2)C3C)CC1 (mixture of isomers) , what Dmax is on record?
## Result > 75%

## Task If you can, please state the reported Dmax value of COc1cc(-c2cn(C)c(=O)c(C)c2C)cc(OC)c1CN1CCN(Cc2cccc(C3CCCN3C(=O)/C(C#N)=C/c3cccc(C(F)(F)F)n3)c2)CC1 (centres unmarked) .
## Result > 75%

## Task Dmax for COc1cc(-c2cn(C)c(=O)c(C)c2C)cc(OC)c1CN1CCCN(Cc2cccc3c2CCN(C(=O)/C(C#N)=C/C(C)(C)C)C3C(C)C)CC1 (mixture of isomers) ?
## Result 40 to 70%
